- Test system: anticorps anti-nef
- method-notes: ELISA for detection of anti-nef antibodies on coated peptides or nef
- Format: binding, humain
- particulars: Serum 11, anti-nef positive; 500 ng coated per well
readout-kind: intensité de l'immunoréactivité (OD), Serum 11

1. XGGKWSKSSVVGWPTVRERMRRAEPAADGVGAASRDLEKHGAITSSNTA ATNAACAWLEAQEEEEVGZ [PF12, protéine F HIV-1, séquence 1-66]: ++ (pour OD = 0,4 à 0,8)
2. XGGKWSKSSVVGWPTVRERMRRAEPAADGVGAYCZ [PF11]: ++ (pour OD = 0,4 à 0,8)

###

- System: anticorps anti-nef
- method-notes: ELISA for detection of anti-nef antibodies on coated peptides or nef
- Assay type: binding, humain
- particulars: Serum 23, anti-nef positive; 500 ng coated per well
Where no end group is shown, it is not given here. The star is where a group is joined. Acm = CC(=O)NC*
readout-kind: intensité de l'immunoréactivité (OD), Serum 23

1) XCYKLVPVEPDKVEEANKGENTSLLHPVSLHGMDDPEREVLEWRFDSRL AFHHVARELHPEYFKNCZ [PF17, protéine F HIV-1, séquence 141-205]: ++ (pour OD = 0,4 à 0,8)
2) GMDDPEREVLEWRFDSRLAFHHVARELHPEYFKNC(acm) (GMDDPEREVLEWRFDSRLAFHHVARELHPEYFKNC(Acm)) [PF16, protéine F HIV-1, séquence 171-205]: ++ (pour OD = 0,4 à 0,8)
